// data source = patent EP1379283B1

Target: oxytocin receptor of rat uterus cell membranes (rat) (UniProt P70536)
Sequence (P70536 whole entry): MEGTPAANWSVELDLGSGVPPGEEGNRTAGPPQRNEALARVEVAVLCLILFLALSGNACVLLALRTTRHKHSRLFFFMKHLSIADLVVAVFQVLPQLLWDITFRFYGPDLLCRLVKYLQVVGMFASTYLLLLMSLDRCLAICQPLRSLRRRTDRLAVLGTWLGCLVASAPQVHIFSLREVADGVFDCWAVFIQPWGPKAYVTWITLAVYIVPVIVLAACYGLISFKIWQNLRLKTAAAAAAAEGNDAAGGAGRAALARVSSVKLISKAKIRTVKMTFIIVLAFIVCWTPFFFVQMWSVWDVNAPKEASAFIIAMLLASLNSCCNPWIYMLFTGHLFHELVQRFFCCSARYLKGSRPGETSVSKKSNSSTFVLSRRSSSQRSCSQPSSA
Method: competition with 3H-oxytocin on rat uterus membranes, metallopeptide at 1 µM
Square brackets hold non-standard residues; d marks the D form. Ends that are not written are not given here. * marks the point of attachment. Cyclohexylacetyl = O=C(CC1CCCCC1)*; dChg = N[C@@H](C(=O)O)C1CCCCC1; Orn = NCCC[C@H](N)C(=O)O; Dap = NC[C@H](N)C(=O)O
Reported Property: % Inhibition at 1 µM (%)
Numeric answer only, unit % assumed.

* [dChg][dW]CIT[Dap]AP[Orn]-NH2 (bridge (positions not given here); not fully specified (bridges); printed as Re-complexed D-Chg-D-Trp-Cys-Ile-Thr-Dap-Ala-Pro-Orn-NH2; also: oxorhenium(V) metal complex) [Re-complexed D-Chg-D-Trp-Cys-Ile-Thr-Dap-Ala-Pro-Orn-NH2] | 0

Problem: Look at this binder and give its reported % Inhibition at 1 µM. Cyclohexylacetyl-[dW]IT[Dap]ACP[Orn]-NH2 (not fully specified (bridges); printed as Caca-D-Trp-Ile-Thr-*Dap-Ala-Cys*-Pro-Orn-NH₂; numbers in words are those of the source; also: Cys7 complexed to rhenium-oxo (Re=O)) [Re-complexed Caca-D-Trp-Ile-Thr-Dap-Ala-Cys-Pro-Orn-NH2]
Result: 0
